- target: human recombinant vasopressin V2 receptor (Homo sapiens, UniProt P30518)
- Construct: gene AVPR2; full-length recombinant receptor in 1321N1 host cells (PerkinElmer)
- Sequence (P30518 whole entry): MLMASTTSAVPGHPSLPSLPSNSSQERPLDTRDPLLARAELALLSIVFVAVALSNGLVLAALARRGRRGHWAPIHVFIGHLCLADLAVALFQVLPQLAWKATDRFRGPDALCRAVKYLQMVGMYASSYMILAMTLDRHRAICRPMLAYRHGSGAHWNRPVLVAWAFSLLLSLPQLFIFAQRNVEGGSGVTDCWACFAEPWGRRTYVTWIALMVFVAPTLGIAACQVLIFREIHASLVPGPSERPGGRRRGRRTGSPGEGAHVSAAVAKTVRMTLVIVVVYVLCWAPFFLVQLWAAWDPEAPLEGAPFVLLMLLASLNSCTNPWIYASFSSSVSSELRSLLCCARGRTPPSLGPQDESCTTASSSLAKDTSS
- test.protocol: radioligand binding assay
- condition.set: read-out: Bingding Assy (IC50; nmol/mL) / V2
observed.property: IC50 (nmol/mL)
Give the value, in units of nmol/mL, as a plain number.

# compound, observed.property, numeric.result
measured = [
    ("Cc1ccc(S(=O)(=O)Nc2ccc(S(=O)(=O)N3CCC(=C4c5ccc(Cl)cc5CCc5cccnc54)CC3)cc2)cc1 [1y]", "IC50", 170),
]

# input Return IC50 measured with human recombinant vasopressin V2 receptor (Homo sapiens, UniProt P30518) given this compound: O=C(Nc1cccc(S(=O)(=O)N2CCC(=C3c4ccc(Cl)cc4CCc4cccnc43)CC2)c1)c1cccc(Cl)c1 [1u]
# output 19

# input Give IC50 (human recombinant vasopressin V2 receptor (Homo sapiens, UniProt P30518)) of the following compound: Cc1ccc(S(=O)(=O)Nc2cccc(S(=O)(=O)N3CCC(=C4c5ccc(Cl)cc5CCc5cccnc54)CC3)c2)cc1 [1w]
# output 30

# input Enter reported IC50 observed with human recombinant vasopressin V2 receptor (Homo sapiens, UniProt P30518) for O=C(Nc1ccc(S(=O)(=O)N2CCC(=C3c4ccc(Cl)cc4CCc4cccnc43)CC2)cc1)c1cccc(Cl)c1 [1x]
# output 310

Each recorded value in this set is attributed to paper PMC6271649.
